Target: SSTR2 (Homo sapiens)
Assay: SSTRs Gi-mediated cAMP inhibition, GloSensor, HEK293, 5 μM forskolin, 15 min room temperature (SSTR2 wild-type)
Assay type: cell-based
Details: EC50, cAMP inhibition best-fit; Q126A set; WT-1
Procedure: The levels of the intracellular 3′, 5′-cyclic AMP (cAMP) were measured by the GloSensor cAMP assay (Promega) as described in the previous studies[28],[41] which has been widely used. The human full-length SSTRs and mutants were cloned into the pcDNA3.1+ vector with a HA signal sequence followed by a Flag tag at the N-terminus. […] Fluorescence signals were measured using the Synergy H1 microplate reader (BioTek) and the data presented are means of at least three independent experiments.
Sequence (P30874 whole entry): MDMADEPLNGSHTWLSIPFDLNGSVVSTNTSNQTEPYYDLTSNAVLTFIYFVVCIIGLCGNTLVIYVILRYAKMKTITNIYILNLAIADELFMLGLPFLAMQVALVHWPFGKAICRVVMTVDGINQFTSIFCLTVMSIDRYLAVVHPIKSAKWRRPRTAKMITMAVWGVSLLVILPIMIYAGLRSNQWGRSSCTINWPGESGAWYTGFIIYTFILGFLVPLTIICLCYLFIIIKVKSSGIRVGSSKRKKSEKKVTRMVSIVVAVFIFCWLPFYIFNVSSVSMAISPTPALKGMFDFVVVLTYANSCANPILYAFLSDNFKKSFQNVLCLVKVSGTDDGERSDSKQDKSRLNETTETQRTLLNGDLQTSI
ASSAY_ENDPOINT: pEC50
Quick note: pEC50 means taking -log10 of the concentration in moles per liter.

Please look up its pEC50: N#Cc1cccc(-c2ccc3ncc(-c4cc(F)cc(F)c4)c(N4CCC(N)CC4)c3c2)c1O [paltusotine]
9.11

###

System: SSTR2 mutants
Assay: SSTRs Gi-mediated cAMP inhibition, GloSensor, HEK293, 5 μM forskolin, 15 min room temperature (SSTR2 mutants)
Format: cell-based, human
Details: Gi signaling; SSTR2 F208(5.38)A; n=3
ASSAY_ENDPOINT: pEC50
# reply with the number alone; pEC50 is -log10 of concentration in mol/L

Return reported pEC50; argument: `N#Cc1cccc(-c2ccc3ncc(-c4cc(F)cc(F)c4)c(N4CCC(N)CC4)c3c2)c1O`
7.19

###

Test system: SSTR2 mutants
Assay: SSTRs Gi-mediated cAMP inhibition, GloSensor, HEK293, 5 μM forskolin, 15 min room temperature (SSTR2 mutants)
Assay type: cell-based, human
Details: read-out: EC50 (best-fit value); W269A-3 (run 3)
ASSAY_ENDPOINT: EC50 (nM)
Record the value in nM, omitting the unit from your answer.

State the recorded EC50 for this entry: `N#Cc1cccc(-c2ccc3ncc(-c4cc(F)cc(F)c4)c(N4CCC(N)CC4)c3c2)c1O`
0.604

###

Target: SSTR3 mutants (Homo sapiens, UniProt P32745, N104V)
Sequence (P32745 whole entry N104V): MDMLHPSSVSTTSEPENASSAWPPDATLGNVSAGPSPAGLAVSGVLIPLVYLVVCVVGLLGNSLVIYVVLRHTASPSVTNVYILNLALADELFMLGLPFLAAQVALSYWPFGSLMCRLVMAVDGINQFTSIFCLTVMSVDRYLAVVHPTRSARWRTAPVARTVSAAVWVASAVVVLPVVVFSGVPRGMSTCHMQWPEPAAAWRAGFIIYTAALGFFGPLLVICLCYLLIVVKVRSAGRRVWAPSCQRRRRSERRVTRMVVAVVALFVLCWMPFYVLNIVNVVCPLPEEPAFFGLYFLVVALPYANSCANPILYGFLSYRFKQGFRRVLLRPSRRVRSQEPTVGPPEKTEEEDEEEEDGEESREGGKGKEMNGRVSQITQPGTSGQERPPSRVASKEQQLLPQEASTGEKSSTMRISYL
Assay: SSTRs Gi-mediated cAMP inhibition, GloSensor, HEK293 (SSTR3 mutants)
ASSAY_ENDPOINT: EC50 (nM)
Note: unit nM is implicit; provide only the numeric part.

Form field: reported EC50 of `N#Cc1cccc(-c2ccc3ncc(-c4cc(F)cc(F)c4)c(N4CCC(N)CC4)c3c2)c1O`
97.8

###

Tested on: SSTR2 mutants
Experiment: Bystander BRET endosomal trafficking (β-arrestin 1-Nluc, FYVE-mVenus), HEK293 (SSTR2 mutants)
Conditions: best-fit value, F265A-3 (run 3)
ASSAY_ENDPOINT: EC50 (µM)
The response must be a number in µM with no trailing unit.

Can you share its EC50? I mean this compound: N#Cc1cccc(-c2ccc3ncc(-c4cc(F)cc(F)c4)c(N4CCC(N)CC4)c3c2)c1O [paltusotine]
14.7

###

Test system: SSTR2 mutants
Assay: Bystander BRET endosomal trafficking (β-arrestin 1-Nluc, FYVE-mVenus), HEK293 (SSTR2 mutants);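 note: Read-out is the BRET ratio between Nluc-fused β-arrestin 1 and the early endosome marker FYVE-mVenus, measured after ligand addition with coelenterazine h as substrate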
Details: read-out: EC50 (best-fit); W269A-2 (run 2)
ASSAY_ENDPOINT: pEC50
Please note pEC50 is a logarithmic value: minus log10 of concentration in mol/L. Answer with that number alone.

Which value of pEC50 has been reported for N#Cc1cccc(-c2ccc3ncc(-c4cc(F)cc(F)c4)c(N4CCC(N)CC4)c3c2)c1O [paltusotine] in the records?
6.32

###

Target: SSTR3 mutants (Homo sapiens, UniProt P32745, F296D)
Sequence (P32745 whole entry F296D): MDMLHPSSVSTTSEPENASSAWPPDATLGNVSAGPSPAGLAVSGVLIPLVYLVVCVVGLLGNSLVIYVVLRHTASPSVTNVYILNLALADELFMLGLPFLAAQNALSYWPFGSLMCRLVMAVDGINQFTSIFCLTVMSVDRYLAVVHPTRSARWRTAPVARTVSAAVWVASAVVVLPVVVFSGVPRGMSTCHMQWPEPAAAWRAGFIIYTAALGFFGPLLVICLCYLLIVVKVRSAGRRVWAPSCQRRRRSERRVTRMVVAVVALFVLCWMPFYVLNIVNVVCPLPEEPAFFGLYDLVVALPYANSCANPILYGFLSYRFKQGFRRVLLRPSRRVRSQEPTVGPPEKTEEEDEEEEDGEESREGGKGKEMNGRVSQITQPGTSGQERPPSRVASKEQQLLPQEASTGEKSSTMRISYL
Test: SSTRs Gi-mediated cAMP inhibition, GloSensor, HEK293 (SSTR3 mutants)
Assay type: cell-based
Conditions: best-fit; SSTR3 F296D-2; read-out: EC50
ASSAY_ENDPOINT: EC50 (nM)
Give the value in nM but do not write nM after it.

Missing value: EC50, SSTR3 mutants (Homo sapiens, UniProt P32745, F296D), entry N#Cc1cccc(-c2ccc3ncc(-c4cc(F)cc(F)c4)c(N4CCC(N)CC4)c3c2)c1O [paltusotine] . Fill in?
236

###

Tested on: SSTR2 mutants
Assay: SSTRs Gi-mediated cAMP inhibition, GloSensor, HEK293, 5 μM forskolin, 15 min room temperature (SSTR2 mutants)
Assay type: cell-based, human
Settings: cAMP inhibition best-fit; Q102A-2
ASSAY_ENDPOINT: EC50 (nM)
Note: unit nM is implicit; provide only the numeric part.

What EC50 value was documented for this compound, N#Cc1cccc(-c2ccc3ncc(-c4cc(F)cc(F)c4)c(N4CCC(N)CC4)c3c2)c1O [paltusotine] ?
28.2

###

Target: UniProt:P30874
Test: NanoBiT β-arrestin 1 recruitment assay, HEK293 (SSTR2 wild-type)
Type: cell-based
Parameters: Human full-length SSTR wild-type and mutant vectors were C-terminally fused; expressed in transfected cells; host or cells: HEK293
Details: EC50 (best-fit), WT-1 (Q102A set)
Sequence (P30874 whole entry): as the sequence (P30874 whole entry) above
Sequence (P49407 whole entry partner): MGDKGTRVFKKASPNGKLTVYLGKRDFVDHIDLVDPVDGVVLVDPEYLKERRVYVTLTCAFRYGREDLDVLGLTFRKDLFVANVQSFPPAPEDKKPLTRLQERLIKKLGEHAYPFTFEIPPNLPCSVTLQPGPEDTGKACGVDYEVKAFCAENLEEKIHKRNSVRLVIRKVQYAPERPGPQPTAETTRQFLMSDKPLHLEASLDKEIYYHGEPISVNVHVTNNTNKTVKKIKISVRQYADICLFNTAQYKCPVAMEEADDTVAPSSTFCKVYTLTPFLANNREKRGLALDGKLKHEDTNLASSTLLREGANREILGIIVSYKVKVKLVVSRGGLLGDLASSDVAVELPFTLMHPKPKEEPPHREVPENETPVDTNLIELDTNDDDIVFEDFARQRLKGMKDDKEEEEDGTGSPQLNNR
ASSAY_ENDPOINT: EC50
Please don't drop the unit; write it after the number.

Lab note: need EC50 for `N#Cc1cccc(-c2ccc3ncc(-c4cc(F)cc(F)c4)c(N4CCC(N)CC4)c3c2)c1O` on UniProt:P30874, anyone have it?
420 nM

###

Target: SSTR2 (Homo sapiens)
Assay: SSTRs Gi-mediated cAMP inhibition, GloSensor, HEK293, 5 μM forskolin, 15 min room temperature (SSTR2 wild-type)
Assay type: cell-based
Conditions: EC50, cAMP inhibition best-fit; V103A set; WT-2
ASSAY_ENDPOINT: EC50 (nM)
Numeric only. Scale: nM

Please give the measured EC50 for this molecule: `N#Cc1cccc(-c2ccc3ncc(-c4cc(F)cc(F)c4)c(N4CCC(N)CC4)c3c2)c1O`
0.605

###

System: SSTR2 mutants
Assay: SSTRs Gi-mediated cAMP inhibition, GloSensor, HEK293, 5 μM forskolin, 15 min room temperature (SSTR2 mutants)
Format: cell-based, human
Settings: V103N, run 1
ASSAY_ENDPOINT: EC50 (nM)
Dear colleague, please return just the value in nM, with no unit written.

Given `N#Cc1cccc(-c2ccc3ncc(-c4cc(F)cc(F)c4)c(N4CCC(N)CC4)c3c2)c1O` , state its recorded EC50.
11.7

###

System: SSTR2 mutants
Test: NanoBiT β-arrestin 1 recruitment assay, HEK293 (SSTR2 mutants)
Format: cell-based, human
Settings: read-out: EC50 (β-arrestin1 recruitment); best-fit, F294A-1
Description: The NanoBiT β-arrestin 1 recruitment assays were carried out according to the method described previously. […] Human full-length SSTR wild-type and mutant vectors were C-terminally fused with a 15-amino acid flexible linker and the small fragment (SmBiT). […] Then, ligands diluted in the assay buffer was added to each well and the luminescence intensity was measured using the Synergy H1 microplate reader and detected at room temperature in a time period. […]
ASSAY_ENDPOINT: pEC50
Scale note: pEC50 = -log10(concentration in M).

Param readout = pEC50; param system = SSTR2 mutants; param query = `N#Cc1cccc(-c2ccc3ncc(-c4cc(F)cc(F)c4)c(N4CCC(N)CC4)c3c2)c1O` ; response: value
5.98

###

Target: SSTR2 (Homo sapiens, UniProt P30874)
Assay: SSTRs Gi-mediated cAMP inhibition, GloSensor, HEK293, 5 μM forskolin, 15 min room temperature (SSTR2 wild-type)
Assay type: cell-based
Settings: EC50, WT-3, run paired with D295F
ASSAY_ENDPOINT: EC50 (nM)
Number only, in nM; omit the unit.

Tell me the measured EC50 of `N#Cc1cccc(-c2ccc3ncc(-c4cc(F)cc(F)c4)c(N4CCC(N)CC4)c3c2)c1O` , please.
1.09

###

Test system: SSTR2 mutants
Test: SSTRs Gi-mediated cAMP inhibition, GloSensor, HEK293, 5 μM forskolin, 15 min room temperature (SSTR2 mutants)
Assay type: cell-based, human
Conditions: Suppl. Table 4; SSTR2 I195(45.52)M; n=3
ASSAY_ENDPOINT: EC50 (nM)
Number only, in nM; omit the unit.

Hello, I am looking for reported EC50 with SSTR2 mutants for N#Cc1cccc(-c2ccc3ncc(-c4cc(F)cc(F)c4)c(N4CCC(N)CC4)c3c2)c1O [paltusotine] . Could you help?
3.05

###

Target: UniProtKB P30874
Assay: Bystander BRET endosomal trafficking (β-arrestin 1-Nluc, FYVE-mVenus), HEK293 (SSTR2 wild-type);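 note: HEK293 cells coexpressing Nluc-tagged β-arrestin 1 and mVenus-fused FYVE endosomal marker, bystander BRET ratio read after ligand addition, coelenterazine h substrate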
Type: cell-based
Parameters: The human full-length SSTRs and mutants were cloned into the pcDNA3.1+ vector; expressed in transfected cells; host or cells: HEK293
Conditions: EC50, best-fit value, WT-1 (N276A, F294A blocks)
ASSAY_ENDPOINT: EC50 (µM)
Hi! Could you send only the number? It should be in µM, unit omitted.

# get_value(readout= EC50, system= UniProtKB P30874) for `N#Cc1cccc(-c2ccc3ncc(-c4cc(F)cc(F)c4)c(N4CCC(N)CC4)c3c2)c1O`
0.25
